System: HL-60
Assay Protocol: NCI tumour cell line growth inhibition, 48 h
Activity calls are given as the source filed them. Cut-off read from the data, not from the text of the source: active = GI50 up to about 1.1 µM and inactive = higher.
Form entry, call: pick from active, inactive

Some entries whose results are on file:
COc1c(C(C)(C)C)cc(CC2C(=O)C=CC2=O)cc1C(C)(C)C
inactive
COC(=O)CC(SCCO)SCCO
inactive
CSC1=C(C(=O)Nc2ccccc2)C(N)=NC1=O
inactive

Input: # fetch the recorded call for N=c1oc2ccccc2cc1-c1nc2ccccc2[nH]1 here
Output: inactive

Input: Recorded test call requested for CSc1c(C(=O)Nc2ccc(Cl)cc2)c(N)nn1-c1ccccc1
Output: inactive

Input: What was the test verdict on Cc1c2oc(=O)c(C#N)cc2c2ccccn12 ?
Output: inactive

Input: How was CCCNCC(=O)O[C@]1(CC)C(=O)OCc2c1cc1n(c2=O)Cc2cc3ccccc3nc2-1 classified in this test?
Output: active

Input: I would be grateful if you could indicate the recorded call for CC1=NNC(=O)C1C1C(=O)NN=C(c2c[nH]c3ccccc23)C1Br (configuration not stated) .
Output: inactive

Input: Tell me the assay call for Oc1cc(CN2CCOCCOCCOCCOCC2)c(O)cc1CN1CCOCCOCCOCCOCC1 please.
Output: inactive

Input: How did this test come out for O=S(=O)(CCBr)CCBr ?
Output: inactive

Input: Write down the call the test reported for this compound. Item: C=C1CC(OC)(C(OC)C(=O)N(C)[C@H]2OCO[C@H]3C2O[C@H](C[C@@H](COC)OC)C(C)(C)C3OC)O[C@H](C)[C@@H]1C (some centres not stated)
Output: inactive

Input: For N#CC(NCCc1ccccc1)c1ccc(C(C#N)NCCc2ccccc2)cc1 (configuration not stated) , which call appears in the assay record?
Output: inactive

Input: Name the outcome recorded for CC(OC(C)(C)C)[C@H](NC(=O)OCc1ccccc1)C(=O)NC(OCc1ccccc1)[C@H]1COC(C)(C)O1 (some centres not stated) in the assay.
Output: inactive

Input: Could you check what this test reported for Cc1cc(C)c2c(c1)CC1(Cc3c(C)ccc(C)c3C1=O)C2=O (configuration not stated) ?
Output: inactive

Input: Tell me the assay call for COc1ccc(/C=C/C(=O)/C=C/c2ccc(OC)cc2)cc1 please.
Output: inactive

---

System: MDA-MB-435
Assay Protocol: NCI tumour cell line growth inhibition, 48 h
Activity calls are given as the source filed them. Cut-off read from the data, not from the text of the source: active = GI50 up to about 1.1 µM and inactive = higher.
Documented GI50 across a set of compounds

Record CCN(CC)CCCC(C)Nc1ccnc2cc3ccccc3cc12 (stereo unspecified) . Reported GI50: 7.85 µM (inactive)

---

Test system: ACHN
Assay Protocol: NCI tumour cell line growth inhibition, 48 h
Active and inactive are the calls of the source. No stated cut-off is given here; in the data, active = GI50 up to about 1.1 µM and inactive = higher.
Measured Metric: GI50

O=C(Nc1nc(C23CC4CC(CC(C4)C2)C3)cs1)c1cc2c(ccc3ccccc32)oc1=O
> 100 µM (inactive)
O=C(O)C(SC1=NC(=O)C2(NN1)c1ccccc1-c1ccccc12)SC1=NC(=O)C2(NN1)c1ccccc1-c1ccccc12
> 10 µM (inactive)
COc1cccc([C@@H]2C/C(=N\NC(=O)C(=O)N[C@@H](C)c3ccccc3)c3ccccc3N2)c1
40.6 µM (inactive)
CC1=C[C@H](C[C@]2(C)c3c(c4c(C)cccc4oc3=O)O[C@@H]2C)OC1=O
> 100 µM (inactive)
O=C1CCSCCC(=O)Nc2ccccc2N1
> 100 µM (inactive)

The record that follows has no GI50 shown yet.
Lab note: measured GI50 of O=C1C=CC2(CCC23C=CC(=O)O3)O1 (stereo unspecified) was > 100 µM (inactive)
